So I've got a bunch of compounds here, and I need their normalized growth values.
Test: chemical genetic growth profiling, strain panel (AID 1159580);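 note: tested at 20 µM; growth read once vehicle control cultures reached saturation at 30 °C; 1 = growth at the plate median or of vehicle wells; lower values mean less growth of the strain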
Conditions: S. cerevisiae deletion strains, growth OD, locus YBR021W, strain FUR4, stronger effect = lower value
Hit rate of the full screen: of about 5,500 compounds, about 2,000 (36%) were called active. Roughly 18% stayed inconclusive and do not appear here. The list shows a part of the results.
Please state the value as a number alone, without comment.

Prompt: Please give the documented normalized growth of CC1=CC(=O)c2ccccc2C1=O
Response: 0.0857

Prompt: For the compound CN(C)[C@@H]1C(=O)C(C(N)=O)=C(O)[C@@]2(O)C(=O)C3=C(O)c4c(O)ccc(Cl)c4[C@@H](O)[C@H]3C[C@@H]12 , report normalized growth.
Response: 0.945

Prompt: State, in one line, measured normalized growth of CN(C)[C@@H]1C(=O)C(C(N)=O)=C(O)[C@@]2(O)C(=O)C3=C(O)c4c(O)cccc4[C@@](C)(O)[C@H]3[C@H](O)[C@@H]12
Response: 0.99

Prompt: Please report the measured normalized growth for CC(C)(C)NCC(O)c1ccc(O)c(CO)c1 (stereo unspecified)
Response: 1.01

Prompt: // Input: N=C(N)N . Output its normalized growth only.
Response: 1.03

Prompt: Give the reported value of normalized growth for this record: CC(=O)Oc1ccc(O)cc1
Response: 0.796

Prompt: Specify normalized growth for C=C(C)C1CCC(C)(O)C2CC3OC3(C)C2C1 (stereo unspecified) and stop.
Response: 1.02

Prompt: Respond only with normalized growth recorded for CO[C@H]1CC(O[C@@H]2/C(C)=C/C[C@@H]3C[C@@H](C[C@]4(CC[C@H](C)[C@@H](C5CCCCC5)O4)O3)OC(=O)[C@@H]3C=C(C)/C(=N\O)[C@H]4OC/C(=C\C=C\[C@@H]2C)[C@]43O)O[C@@H](C)C1O (stereo partly specified)
Response: 0.952

Prompt: Output normalized growth of CC[N+](C)(C)c1cccc(O)c1
Response: 0.996

Prompt: Answer with reported normalized growth of Oc1cccc(O)c1
Response: 1.02

Prompt: For Cc1cc(=O)oc2cc(O)c(O)cc12 , write its normalized growth.
Response: 1.02

Prompt: Give recorded normalized growth. C=C1c2c(Cl)ccc(O)c2C(O)=C2C(=O)[C@]3(O)C(O)=C(C(N)=O)C(=O)[C@@H](N(C)C)[C@@H]3[C@@H](O)[C@H]12
Response: 0.914

Prompt: Provide normalized growth value for the following compound: CC(C)CCCC(C)C1CCC2C3=CC[C@H]4C[C@@H](O)CC[C@]4(C)C3CC[C@@]21C (stereo partly specified)
Response: 1.02

Prompt: Return normalized growth for the following compound: CC(C)CCCC(C)C1CCC2C3CC[C@H]4C[C@@H](O)CC[C@]4(C)C3CC[C@]12C (stereo partly specified)
Response: 1

Prompt: Provide normalized growth value for the following compound: CC(=O)Oc1cccc(O)c1
Response: 0.973

Prompt: Supply normalized growth value. Item: CN(C)c1ccc(O)c2c1C[C@H]1C[C@H]3[C@H](N(C)C)C(=O)C(C(N)=O)=C(O)[C@@]3(O)C(=O)C1=C2O
Response: 0.915

Origin of measurements: PubChem BioAssay AID1159580
